B1: Azoarcus group I ribozyme (parent)
chain: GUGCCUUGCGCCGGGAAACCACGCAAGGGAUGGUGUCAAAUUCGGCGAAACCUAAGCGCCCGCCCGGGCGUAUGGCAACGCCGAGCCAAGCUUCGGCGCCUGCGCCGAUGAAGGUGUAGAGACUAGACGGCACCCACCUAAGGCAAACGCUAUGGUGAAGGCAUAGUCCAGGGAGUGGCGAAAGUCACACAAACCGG

Variants of: B1
Assay: reverse-splicing fitness (ratio to wild type); higher = more active; in vitro selection; Mg2+ level not given
Would you please tag the item true when its reverse-splicing fitness is 0.007 or above, and false when it is below?

Study these solved cases before continuing.
variant_label="C82A A111G A120G U176G" label=false
variant_label="C82U A111C A120G A145C C150G C169G U176C" label=false
variant_label="C82G A111C A145C C150G U176A" label=true
variant_label="C82G A111U A120U C150U C169A U176C" label=false
variant_label="A111U A120G C150A" label=true
variant_label="A120G A145U U176G" label=true

Is reverse-splicing fitness for C82A A111G A145G C150G C169G U176G at or above 0.007?
false

Is reverse-splicing fitness for C82G A111G A145U C150U C169U U176C at or above 0.007?
true

Is reverse-splicing fitness for C82A A111C A145U C150U C169U U176A at or above 0.007?
true

Is reverse-splicing fitness for C82A A120G A145U C150A C169U U176G at or above 0.007?
false

Is reverse-splicing fitness for A111U A120G A145C C150A U176C at or above 0.007?
true
